assay: Inhibition of bovine heart PDE assessed as inhibition 8-[3H]-cAMP substrate hydrolysis; set-up: species or system Bos taurus; details: read-out: I50
pIC50: −log10 of the molar value.
// pIC50 lookup, one value per entry
readout-kind: pIC50

query-smiles	value-observed
CCCCc1nc(N)c2ncn([C@@H]3O[C@@H]4COP(=O)(O)O[C@H]4[C@H]3O)c2n1	5.00
Nc1c2ncn([C@@H]3O[C@@H]4COP(=O)(O)O[C@H]4[C@H]3O)c2nc[n+]1[O-]	4.30
Cc1nc(N)c2nc(N=[N+]=[N-])n([C@@H]3O[C@@H]4COP(=O)(O)O[C@H]4[C@H]3O)c2n1	4.30
CCCCc1nc(N)c2nc(Sc3ccc(Cl)cc3)n([C@@H]3O[C@@H]4COP(=O)(O)O[C@H]4[C@H]3O)c2n1	5.30
CCCCc1nc(N)c2nc(SCc3ccccc3)n([C@@H]3O[C@@H]4COP(=O)(O)O[C@H]4[C@H]3O)c2n1	5.15
Cn1cnc2c(ncn2[C@@H]2O[C@@H]3COP(=O)(O)O[C@H]3[C@H]2O)c1=N	4.10
Cc1nc(N)c2nc(Br)n([C@@H]3O[C@@H]4COP(=O)(O)O[C@H]4[C@H]3O)c2n1	4.52
Cn1cnc2c(nc(SCc3ccccc3)n2[C@@H]2O[C@@H]3COP(=O)(O)O[C@H]3[C@H]2O)c1=N	4.17

----------
organism: Oryctolagus cuniculus; experiment: Activity of rabbit kidney PDE assessed as enzyme-mediated compound hydrolysis after 10 to 60 mins by colorimetric assay relative to cAMP; format: tissue-based
// fold change (FC) lookup, one value per entry
readout-kind: fold change (FC)

query-smiles	relation-qualifier	value-observed
CCCCc1nc(N)c2nc(Br)n([C@@H]3O[C@@H]4COP(=O)(O)O[C@H]4[C@H]3O)c2n1	<	0.05
Cn1cnc2c(ncn2[C@@H]2O[C@@H]3COP(=O)(O)O[C@H]3[C@H]2O)c1=N	=	0.16
Cc1nc(N)c2ncn([C@@H]3O[C@@H]4COP(=O)(O)O[C@H]4[C@H]3O)c2n1	=	0.83
Nc1ncnc2c1nc(Sc1ccc(Cl)cc1)n2[C@@H]1O[C@@H]2COP(=O)(O)O[C@H]2[C@H]1O	<	0.05
Nc1ncnc2c1nc(Br)n2[C@@H]1O[C@@H]2COP(=O)(O)O[C@H]2[C@H]1O	<	0.05
Cc1nc(N)c2nc(Br)n([C@@H]3O[C@@H]4COP(=O)(O)O[C@H]4[C@H]3O)c2n1	=	0.15
Nc1c2nc(Br)n([C@@H]3O[C@@H]4COP(=O)(O)O[C@H]4[C@H]3O)c2nc[n+]1[O-]	<	0.05
CCCCc1nc(N)c2ncn([C@@H]3O[C@@H]4COP(=O)(O)O[C@H]4[C@H]3O)c2n1	=	0.64
Cc1nc(N)c2nc(SCc3ccccc3)n([C@@H]3O[C@@H]4COP(=O)(O)O[C@H]4[C@H]3O)c2n1	=	0.05
Cc1nc(N)c2nc(N=[N+]=[N-])n([C@@H]3O[C@@H]4COP(=O)(O)O[C@H]4[C@H]3O)c2n1	=	0.16
Nc1ncnc2c1nc(SCc1ccccc1)n2[C@@H]1O[C@@H]2COP(=O)(O)O[C@H]2[C@H]1O	<	0.05
CCCCc1nc(N)c2nc(SCc3ccccc3)n([C@@H]3O[C@@H]4COP(=O)(O)O[C@H]4[C@H]3O)c2n1	<	0.05
CCCCc1nc(N)c2nc(Sc3ccc(Cl)cc3)n([C@@H]3O[C@@H]4COP(=O)(O)O[C@H]4[C@H]3O)c2n1	<	0.05
Cc1nc(N)c2nc(Sc3ccc(Cl)cc3)n([C@@H]3O[C@@H]4COP(=O)(O)O[C@H]4[C@H]3O)c2n1	=	0.05
[N-]=[N+]=Nc1nc2c(N)ncnc2n1[C@@H]1O[C@@H]2COP(=O)(O)O[C@H]2[C@H]1O	<	0.05
Nc1c2ncn([C@@H]3O[C@@H]4COP(=O)(O)O[C@H]4[C@H]3O)c2nc[n+]1[O-]	=	0.33
